Assignment: determine reported Activity for the given compounds.
- Test system: Alopecurus myosuroides (ALOMY)
- EXPERIMENTAL PROTOCOL: Glasshouse trial on activity boost, post-emergence spraying, visual rating
- Type: in vivo
- CONDITION LABEL: 50 g/ha, RME (0.25%)

# COMPOUND, READING
data = [
    ("CCc1cc(-c2ccc(Cl)cc2)cc(C)c1C1=C(O)C2(CCC(OC)CC2)OC1=O (stereo not shown)", "30%"),
    ("CCc1cc(C)cc(CC)c1-c1c(OC(=O)C(C)(C)C)n2n(c1=O)CCOCC2", "90%"),
    ("CCc1cccc(CC)c1C1=C(O)[C@]2(CC[C@H](OC)CC2)NC1=O", "5%"),
]

For the next question, use this compound.
Lab request: please report Activity under test system Alopecurus myosuroides (ALOMY) for CCc1cc(Cl)ccc1C1=C(OC(=O)C(C)C)C2(CCC(C)CC2)NC1=O (stereo not shown)
20%

Value source: patent US20090227563A1
